Assay: Saturated solubility of Allo in receptor media
Assay type: physicochemical
Conditions: aqueous with cosolvent or surfactant or cyclodextrin, thermodynamic from solid, PBS (pH 7.4) containing 40% (v/v) IPA, 32° C., n=3, read-out: Solubility of Allo in receptor medium
Description: To select a receptor medium placed in the receptor compartment of the Franz chamber, the saturated solubilities of Allo in various media were determined. PBS at pH 7.4 has been commonly used to mimic the physiological condition. […] An excessive amount of Allo was added to 1 ml of the following media: (1) 10% (w/v) 2-hydroxypropyl-β-cyclodextrin (HβCD), (2) 40% (v/v) isopropyl alcohol (IPA), (3) 30% (v/v) CREMOPHOR EL®, and (4) 20% (v/v) IPA and 25% (v/v) CREMOPHOR EL®. […]
Endpoint label: solubility at 24 h (µg/mL)
Answers are plain numbers, in µg/mL.

Record CC(=O)[C@H]1CC[C@H]2[C@@H]3CC[C@H]4C[C@H](O)CC[C@]4(C)[C@H]3CC[C@]12C [Allo, 3α-hydroxy-5α-pregnan-20-one] , field solubility at 24 h: 1130

====

Test: Saturated solubility of Allo in receptor media
Assay type: physicochemical
Details: aqueous with cosolvent or surfactant or cyclodextrin, thermodynamic from solid, PBS (pH 7.4) containing 10% (w/v) HβCD, 32° C., n=3, read-out: Solubility of Allo in receptor medium
Endpoint label: solubility at 24 h (µg/mL)
Numbers only, in µg/mL.

Record CC(=O)[C@H]1CC[C@H]2[C@@H]3CC[C@H]4C[C@H](O)CC[C@]4(C)[C@H]3CC[C@]12C [Allo, 3α-hydroxy-5α-pregnan-20-one] , field solubility at 24 h: 3450

====

Test: Saturated solubility of Allo in receptor media
Format: physicochemical
Conditions: aqueous with cosolvent or surfactant or cyclodextrin, thermodynamic from solid, PBS (pH 7.4) containing 20% (v/v) IPA and 25% (v/v) CREMOPHOR EL®, 32° C., n=3, read-out: Solubility of Allo in receptor medium
Endpoint label: solubility at 24 h (µg/mL)
One number for each entry, in µg/mL.

Record CC(=O)[C@H]1CC[C@H]2[C@@H]3CC[C@H]4C[C@H](O)CC[C@]4(C)[C@H]3CC[C@]12C [Allo, 3α-hydroxy-5α-pregnan-20-one] , field solubility at 24 h: 3350

====

Assay: Saturated solubility of Allo in oils
Type: physicochemical
Details: oil or lipid, thermodynamic from solid, in isopropyl myristate, room temperature, mean ± SD, n=3
Endpoint label: solubility at 72 h
Phrase the answer as number then unit, nothing more needed.

Record CC(=O)[C@H]1CC[C@H]2[C@@H]3CC[C@H]4C[C@H](O)CC[C@]4(C)[C@H]3CC[C@]12C [Allo, 3α-hydroxy-5α-pregnan-20-one] , field solubility at 72 h: 8880 µg/mL
